Where do the numbers come from? From patent US11028079B2.

Measured Kd by item
Molecular target: BRD4 bromodomains (Homo sapiens, UniProt O60885)
Construct: fused on or other part: T7 phage capsid protein (phage-display fusion; the phage DNA is read out by qPCR)
Experiment: BROMOscan bromodomain competition binding assay (DiscoveRx)
Details: Kd from 11 compound concentrations ranging from 0 to 10 μM, read-out: BROMOscan Relative Activity
Experimental: Bromodomain assays were conducted to measure interactions between certain compounds and bromodomains. The assays were conducted according to BROMOscan protocol from Discover Rx. Briefly, BRD4 bromodomains expressed as a fusion capsid protein of T7 phage were bound to acetylated peptide ligand on a solid phase and competition bindings were performed. […] The bromodomain concentration in the eluates was measured by qPCR. […]

Below, 2 compounds whose answers are already recorded.
- givenSmiles: "Cc1noc(C)c1-c1ccc2nc(C(=O)N3CCc4[nH]ncc4C3)nc(NCc3cncc(Cl)c3)c2c1"
  Kd: "500 to 5000 nM"
- givenSmiles: "Cc1noc(C)c1-c1ccc2nc(-c3cnn(CC(=O)N(C)C)c3)nc(N3CCOC[C@@H]3c3ccccc3)c2c1"
  Kd: "< 500 nM"

Please report the recorded Kd for Cc1noc(C)c1-c1ccc2nc(N3CCN(CCN(C)C)CC3)nc(NCc3cccnc3)c2c1 .
< 500 nM

Likewise for Cc1noc(C)c1-c1ccc2nc(C(=O)N3CCc4[nH]ncc4C3)nc(NC3(c4cccc(Cl)c4)CC3)c2c1 ?
< 500 nM

And then Cc1noc(C)c1-c1ccc2nc(C(=O)NCc3ccncc3Cl)nc(NCc3cccc(Cl)c3)c2c1 , what is it?
< 500 nM

Try this compound next: Cc1noc(C)c1-c1ccc2nc(N3CCN(CCN(C)C)CC3)nc(NCc3cc(Cl)ccn3)c2c1
< 500 nM

Now this one: Cc1noc(C)c1-c1ccc2nc(-c3cnn(C4CNC4)c3)nc(N3CCOC[C@@H]3c3ccccc3)c2c1
< 500 nM

----------
Target: BRD4 bromodomains (Homo sapiens, UniProt O60885)
Construct: fused on or other part: T7 phage capsid protein (phage-display fusion; the phage DNA is read out by qPCR)
Assay: BROMOscan bromodomain competition binding assay (DiscoveRx)
Details: Kd from 11 compound concentrations ranging from 0 to 10 μM, read-out: BROMOscan Relative Activity
molecules and their reported Kd

- molecule: "Cc1nocc1-c1ccc2nc(N3CCN(CCN(C)C)CC3)nc(NCc3cccc(Cl)c3)c2c1 [Example 93]"
  targetUnderTest: "BRD4 bromodomains (Homo sapiens, UniProt O60885)"
  Kd: "< 0.5 µM"

Recorded Kd for Cc1noc(C)c1-c1ccc2nc(C(=O)NCc3cnn(C)c3C)nc(NCc3cccc(Cl)c3)c2c1 [Example 190] , please?
< 0.5 µM

Further, for Cc1ccncc1CNc1nc(N2CCN(CCN(C)C)CC2)nc2ccc(-c3c(C)noc3C)cc12 [Example 84] ?
< 0.5 µM

----------
Listed here: items and their measured Kd.
Biological target: BRD4 bromodomains (Homo sapiens)
Construct: fused on or other part: T7 phage capsid protein (phage-display fusion; the phage DNA is read out by qPCR)
Test: BROMOscan bromodomain competition binding assay (DiscoveRx)
Conditions: Kd from 11 compound concentrations ranging from 0 to 10 μM, read-out: BROMOscan Relative Activity

- givenSmiles: "Cc1cnc(CNC(=O)c2nc(NCc3cccc(Cl)c3)c3cc(-c4c(C)noc4C)ccc3n2)o1"
  Kd: "< 500 nM"
- givenSmiles: "Cc1noc(C)c1-c1ccc2nc(-c3cnn(CCO)c3)nc(NC3(c4cccc(Cl)c4)CC3)c2c1"
  Kd: "< 500 nM"
- givenSmiles: "CN(C)CCN1CCN(c2nc(NCc3cccc(Cl)c3)c3cc(-c4ccc(O)nc4)ccc3n2)CC1"
  Kd: "500 to 5000 nM"
- givenSmiles: "Cc1noc(C)c1-c1ccc2nc(N3CCc4[nH]ncc4C3)nc(N3CCOC[C@@H]3c3ccccc3)c2c1"
  Kd: "< 500 nM"
- givenSmiles: "Cc1noc(C)c1-c1ccc2nc(N3CCN(C(=O)CO)CC3)nc(N3CCOC[C@@H]3c3ccccc3)c2c1"
  Kd: "< 500 nM"

# input molecule: Cn1cc(-c2ccc3nc(-c4cnn(CCO)c4)nc(NCc4cccc(Cl)c4)c3c2)ccc1=O ; wanted: its Kd
500 to 5000 nM

Input Cc1csc(CNC(=O)c2nc(NCc3cccc(Cl)c3)c3cc(-c4c(C)noc4C)ccc3n2)n1
< 500 nM

Another molecule: Cc1noc(C)c1-c1ccc2nc(-c3cnn(CCO)c3)nc(N3CCC(C(=O)O)CC3)c2c1
500 to 5000 nM

Another molecule to look at: Cc1noc(C)c1-c1ccc2nc(-c3c(C)noc3C)cc(NCc3cccc(Cl)c3)c2c1
500 to 5000 nM

Check Cc1noc(C)c1-c1ccc2nc(N3CCN(CCN(C)C)CC3)nc(NCc3cccc(F)c3)c2c1 too.
< 500 nM
